Hello, the source for this data is patent US20240254202A1, in case you need it.

Known pEC50 of a selection of binders
target: Receptor Binding Domain (RBD) of the SARS-COV-2 protein S (SARS-CoV-2, UniProt P0DTC2 319-541); assay: ELISA, purified nanobody, RBD coated
pEC50: −log10 of the molar value.

# BINDER, pEC50
data = [
    ("NbCoV_71 (VHH) VHH: QVQLQESGGGLVQAGGSLRLSCAASGLTFGYTATAWFRQAPGKEREFVARIFKRGGYTYYSDSVKGRFTVSRDSAKDTVYLQMNSLKSEDTAVYYCAVAREWSDLDFRDGYDYWGQGTQVTVSS", 8.79),
    ("NbCoV_43 (VHH, also called Nb 43) VHH: QVQLQESGGGLVQPGGSLRLSCVASGSIGSINHMAWFRKPPGKERELVASITLAPDEIAYYADSVKGRFAISKGNAQPTLYLQMNSLKPEDTAVYYCHFRQIRANAHDVYWGQGTQVTVSS", 9.74),
]
